- Experimental System: Cholesteryl ester transfer protein (Homo sapiens, UniProt P11597)
- Sequence (P11597 whole entry): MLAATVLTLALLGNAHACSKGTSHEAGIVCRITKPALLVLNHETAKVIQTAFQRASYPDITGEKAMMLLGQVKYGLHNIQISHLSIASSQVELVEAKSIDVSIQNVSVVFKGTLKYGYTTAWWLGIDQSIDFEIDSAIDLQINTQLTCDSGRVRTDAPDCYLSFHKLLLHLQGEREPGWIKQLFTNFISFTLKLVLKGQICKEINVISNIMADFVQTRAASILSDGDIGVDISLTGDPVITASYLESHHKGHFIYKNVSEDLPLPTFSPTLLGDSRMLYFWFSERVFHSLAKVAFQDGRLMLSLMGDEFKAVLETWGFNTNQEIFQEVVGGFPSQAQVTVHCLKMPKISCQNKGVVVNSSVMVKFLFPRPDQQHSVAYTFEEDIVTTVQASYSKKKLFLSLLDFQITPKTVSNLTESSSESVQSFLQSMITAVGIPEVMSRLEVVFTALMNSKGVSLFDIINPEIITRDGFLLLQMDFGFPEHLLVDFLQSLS
- Assay Protocol: Inhibition of CETP-mediated [3H]-CE from HDL to LDL in human plasma
Quantity Kind: IC50 (nM)
Quick reminder: number only, in nM, skip the unit.

# query: IC50 | item NCC(O)C(F)(F)F (stereo unspecified) | system: Cholesteryl ester transfer protein (Homo sapiens, UniProt P11597)
600

Source: ChEMBL document CHEMBL3351791
